All values here come from ChEMBL document CHEMBL1287666.

test system: Candida albicans; assay: Antifungal activity against Candida albicans by serial dilution method; assay type: functional
In this section we review reported MIC values for a set of compounds.

Below are worked cases with known answers.
compound	MIC
CCCCCCC(=O)OCC#Cc1coc2cc(OC)ccc2c1=O	> 100 µg/mL
COc1ccc2c(=O)c(C#CCOC(=O)CC(C)C)coc2c1	> 100 µg/mL

Request: Query: MIC; subject: COc1ccc2c(=O)c(C#CCOC(=O)CCCCC(C)C)coc2c1
Response: > 100 µg/mL

Request: Field entry: CCCCCCCC(=O)OCC#Cc1coc2cc(OC)ccc2c1=O
Response: > 100 µg/mL

* * *

In this section we review reported MIC values for a set of compounds.
test system: Candida parapsilosis; assay: Antifungal activity against Candida parapsilosis clinical isolate by serial dilution method; assay type: functional; details: Lodderomyces parapsilosis

substanceSmiles	parameter	measuredValue
COc1ccc2c(=O)c(C#CCOC(=O)CCCCC(C)C)coc2c1	MIC	25 µg/mL
CCCC(=O)OCC#Cc1coc2cc(OC)ccc2c1=O	MIC	50 µg/mL
COc1ccc2c(=O)c(C#CCOC(=O)C3C(C)(C)C3(C)C)coc2c1	MIC	> 100 µg/mL
CCC(=O)OCC#Cc1coc2cc(OC)ccc2c1=O	MIC	25 µg/mL
OC(Cn1cncn1)(Cn1cncn1)c1ccc(F)cc1F	MIC	32 µg/mL

From here, focus on the item given below.
Request: Query: MIC; subject: COc1ccc2c(=O)c(C#CCOC(=O)Cc3ccccc3Cl)coc2c1
Response: > 100 µg/mL

* * *

tested on: Cryptococcus neoformans; experiment: Antifungal activity against Cryptococcus neoformans by serial dilution method; type: functional
parameter: MIC (µg/mL)
Report the figure in µg/mL without appending any unit label.

Below are worked cases with known answers.
compound	MIC, µg/mL
COc1ccc2c(=O)c(C#CCOC(=O)CCCCC(C)C)coc2c1	50
COc1ccc2c(=O)c(C#CCOC(=O)CC(C)C)coc2c1	50
OC(Cn1cncn1)(Cn1cncn1)c1ccc(F)cc1F [FLUCONAZOLE]	1

From here, focus on the item given below.
Request: Query: MIC; subject: CCCC(=O)OCC#Cc1coc2cc(OC)ccc2c1=O
Response: 50

* * *

test system: Candida albicans; experiment: Antifungal activity against Candida albicans by serial dilution method; format: functional
parameter: MIC

Below are worked cases with known answers.
substanceSmiles	parameter	measuredValue
CCCCCC(=O)OCC#Cc1coc2cc(OC)ccc2c1=O	MIC	> 100 µg/mL
CCCCC(=O)OCC#Cc1coc2cc(OC)ccc2c1=O	MIC	25 µg/mL
COc1ccc2c(=O)c(C#CCOC(=O)c3ccccc3)coc2c1	MIC	> 100 µg/mL
COc1ccc2c(=O)c(C#CCOC(=O)Cc3ccccc3)coc2c1	MIC	> 100 µg/mL
CCC(=O)OCC#Cc1coc2cc(OC)ccc2c1=O	MIC	25 µg/mL
COc1ccc2c(=O)c(C#CCOC(=O)Cc3ccc(Cl)cc3)coc2c1	MIC	> 100 µg/mL

Request: What MIC appears in the records for this molecule with Candida albicans? COc1ccc2c(=O)c(C#CCOC(C)=O)coc2c1
Response: > 100 µg/mL

Request: Field entry: COc1ccc2c(=O)c(C#CCOC(=O)C(C)C)coc2c1
Response: 50 µg/mL

Request: Field entry: COc1ccc2c(=O)c(C#CCOC(=O)c3ccc([N+](=O)[O-])cc3)coc2c1
Response: > 100 µg/mL

Request: Field entry: COc1ccc2c(=O)c(C#CCOC(=O)C3C(C)(C)C3(C)C)coc2c1
Response: > 100 µg/mL

Request: Field entry: OC(Cn1cncn1)(Cn1cncn1)c1ccc(F)cc1F
Response: 0.25 µg/mL

* * *

test system: Candida parapsilosis; experiment: Antifungal activity against Candida parapsilosis clinical isolate by serial dilution method; type: functional; settings: Lodderomyces parapsilosis
parameter: MIC

Below are worked cases with known answers.
substanceSmiles	MIC
CCCCCCCC(=O)OCC#Cc1coc2cc(OC)ccc2c1=O	> 100 µg/mL
COc1ccc2c(=O)c(C#CCOC(=O)C(C)C)coc2c1	12.5 µg/mL
COc1ccc2c(=O)c(C#CCOC(=O)C3CCCCC3)coc2c1	> 100 µg/mL

Request: Query: MIC; subject: COc1ccc2c(=O)c(C#CCOC(=O)Cc3ccc(Cl)cc3)coc2c1
Response: > 100 µg/mL

Request: Field entry: COc1ccc2c(=O)c(C#CCOC(=O)c3ccccc3)coc2c1
Response: > 100 µg/mL

* * *

test system: Candida albicans; assay: Antifungal activity against Candida albicans by serial dilution method; format: functional
parameter: MIC

substanceSmiles	MIC
COc1ccc2c(=O)c(C#CCOC(=O)C3CCCCC3)coc2c1	> 100 µg/mL
CCCC(=O)OCC#Cc1coc2cc(OC)ccc2c1=O	12.5 µg/mL
COc1ccc2c(=O)c(C#CCO)coc2c1	> 100 µg/mL

Request: Query: MIC; subject: COc1ccc2c(=O)c(C#CCOC(=O)Cc3ccccc3Cl)coc2c1
Response: > 100 µg/mL

Request: Field entry: COc1ccc2c(=O)c(C#CCOC(=O)c3cc([N+](=O)[O-])cc([N+](=O)[O-])c3)coc2c1
Response: > 100 µg/mL
